Species: Homo sapiens
Experiment: Selectivity ratio of Ki for binding affinity to FXa (unknown origin) using Mes-DArg-Pro-Arg-AMC as substrate to Ki for binding affinity to N-terminal MRGS(His)6GSDDDDK-tagged Matriptase (unknown origin ) expressed in Escherichia coli assessed as inhibition constant using Mes-DArg-Pro-Arg-AMC as substrate
Kindly apply the following: t if Ratio Ki is less than 2, f in every other case.

                            structure_smiles  discrete_label
 0  CC(C)(C)NC(=O)NC1CCN(C(=O)[C@H](Cc2cccc(C(=N)N)c2)NS(=O)(=O)c2cccc(-c3ccc(CO)cc3)c2)CC1               f
 1  CC(C)(C)NC(=O)NC1CCN(C(=O)[C@H](Cc2cccc(C(=N)N)c2)NS(=O)(=O)c2cccc(-c3cc(F)c(CO)c(F)c3)c2)CC1               f
 2  COc1ccc(-c2cccc(S(=O)(=O)N[C@@H](Cc3cccc(C(=N)N)c3)C(=O)N3CCN(C(=O)NC4CCCCC4)CC3)c2)c(OC)c1               t
 3  COc1ccc(-c2cccc(S(=O)(=O)N[C@@H](Cc3cccc(C(=N)N)c3)C(=O)N3CCN(C(=O)NC(C)(C)C)CC3)c2)c(OC)c1               t
 4  COc1ccc(-c2cccc(S(=O)(=O)N[C@@H](Cc3cccc(C(=N)N)c3)C(=O)N3CCN(C(=O)OC(C)(C)C)CC3)c2)c(OC)c1               f
 5  COc1ccc(-c2cccc(S(=O)(=O)N[C@@H](Cc3cccc(C(=N)N)c3)C(=O)N3CCN(C(=O)C(C)(C)C)CC3)c2)c(OC)c1               t
 6  CC(C)(C)NC(=O)NC1CCN(C(=O)[C@H](Cc2cccc(C(=N)N)c2)NS(=O)(=O)c2cccc(-c3ccc(Cl)cc3Cl)c2)CC1               t
 7  COc1ccc(-c2cccc(S(=O)(=O)N[C@@H](Cc3cccc(C(=N)N)c3)C(=O)N3CCN(C(=O)C4CCCCC4)CC3)c2)c(OC)c1               f
 8  CC(C)(C)NC(=O)NC1CCN(C(=O)[C@H](Cc2cccc(C(=N)N)c2)NS(=O)(=O)c2cccc(-c3cccc(CO)c3)c2)CC1               t
 9  CNC(=O)NC1CCN(C(=O)[C@H](Cc2cccc(C(=N)N)c2)NS(=O)(=O)c2cccc(-c3ccc(OC)cc3OC)c2)CC1               t
10  COc1ccc(-c2cccc(S(=O)(=O)N[C@@H](Cc3cccc(C(=N)N)c3)C(=O)N3CCC(NC(=O)NC(C)(C)C)CC3)c2)c(OC)c1               t

FYI, the data here is from ChEMBL document CHEMBL5113419.
